System: KM-H2 (Hodgkin's Lymphoma)
Assay: combination Emax (second highest fraction inhibited in the dose matrix, 72 h); higher = more inhibition; extreme values may be limits of the assay
property label: combination Emax
Write the value as a bare number.

Q. Lookup: combination Emax / KM-H2 (Hodgkin's Lymphoma) / CN(CCO)CC[C@H](CSc1ccccc1)Nc1ccc(S(=O)(=O)NC(=O)c2ccc(N3CCC([C@@H](O)c4ccccc4-c4ccc(Cl)cc4)CC3)cc2)cc1S(=O)(=O)C(F)(F)F [AZD4320] + CCN(CCO)CCCOc1ccc2c(Nc3cc(CC(=O)Nc4cccc(F)c4)[nH]n3)ncnc2c1 [AZD2811] (first compound max 1 µM, 7x7, partner max 1 µM)
A. 0.196

Q. Lookup: combination Emax / KM-H2 (Hodgkin's Lymphoma) / CC(=O)c1c(C)c2cnc(Nc3ccc(N4CCNCC4)cn3)nc2n(C2CCCC2)c1=O [Palbociclib] + CC1(C)CCC(CN2CCN(c3ccc(C(=O)NS(=O)(=O)c4ccc(NCC5CCOCC5)c([N+](=O)[O-])c4)c(Oc4cnc5[nH]ccc5c4)c3)CC2)=C(c2ccc(Cl)cc2)C1 [Venetoclax] (first compound max 10 µM, 7x7, partner max 1 µM)
A. 0.383
